Origin of the recorded values: ChEMBL document CHEMBL2062435

# reported MIC; entries follow
Tested on: Enterococcus faecium
Assay: Antimicrobial activity against Enterococcus faecium 10-5 after 18-24 hrs by two-fold serial dilution method
Assay type: functional
Provide only the numeric value, understood in µg/mL.

Illustrative cases are given below, each with its answer.
{"columns": ["compound", "unitString", "MIC"],
 "data": [
  ["C[C@H]1COc2c(N3CCN(C)CC3)c(F)cc3c(=O)c(C(=O)O)cn1c23.C[C@H]1COc2c(N3CCN(C)CC3)c(F)cc3c(=O)c(C(=O)O)cn1c23.O [LEVOFLOXACIN]", "µg/mL", 32],
  ["COc1cccc(OC)c1CO/N=C1\\CN(c2nc3c(cc2F)c(=O)c(C(=O)O)cn3C2CC2)CC1CN.CS(=O)(=O)O (racemic)", "µg/mL", 8],
  ["COc1ccc(CO/N=C2\\CN(c3nc4c(cc3F)c(=O)c(C(=O)O)cn4C3CC3)CC2CN)c(OC)c1.CS(=O)(=O)O (racemic)", "µg/mL", 8]
]}

(Q) May I ask what MIC has been recorded for CS(=O)(=O)O.NCC1CN(c2nc3c(cc2F)c(=O)c(C(=O)O)cn3C2CC2)C/C1=N\OCc1ccc2c(c1)OCO2 (racemic) ?
(A) 4

(Q) May I ask what MIC has been recorded for CS(=O)(=O)O.NCC1CN(c2nc3c(cc2F)c(=O)c(C(=O)O)cn3C2CC2)C/C1=N\OCc1ccc(OCc2ccccc2)cc1 (racemic) ?
(A) 32

(Q) May I ask what MIC has been recorded for COc1ccc(OC)c(CO/N=C2\CN(c3nc4c(cc3F)c(=O)c(C(=O)O)cn4C3CC3)CC2CN)c1.CS(=O)(=O)O (racemic) ?
(A) 4
